Here, each record is paired with measured folding stability dG unfold data.
Assay: folding stability dG unfold from trypsin proteolysis; higher = more stable
Measured Attribute: folding stability dG unfold (kcal/mol)

>>> print(df.to_string())
                               residue_codes           measured_attribute  units_symbol  recorded_value
 0  SAGGSAGGSAGGDAPNTTVTVTLKAEVYYDPSTGALVVKVTAYFPATNTTVTLEFTFPLSAGGSAGGSAGGS [r10_187_TrMRF]  folding stability dG unfold      kcal/mol            3.66
 1  SAGGSASMTTKRPVSPELRAKVEAAAAAGDPAITVTLPVTLPDGRTVTLTVTKDPTADTFTATVVSSAGGSA [r15_700_JUSTAS]  folding stability dG unfold      kcal/mol          0.0823
 2  SAGMTFTVDVEEETFSETKVIRVPVEYDDPALVDVAAAEIREALGIPESESVTVEREPRRATITIVIPASAG [r14_804_JUSTAS]  folding stability dG unfold      kcal/mol           0.267
 3  SFRIMASYDPDYGTITVYVQFQDPDNGEPIPAEEIAKEIAEQFPGAKIDDIEPNPDGWFKIEIKVPPGAFSA [r9_87_TrROS]  folding stability dG unfold      kcal/mol            2.19
 4  SAGGPKVEIVDITVTEEEVNGKKKKTVTVKVKLENGETLTITMSEEELKKLGLSVEEIAKKLAKKLKSAGGS [r16_625_TrROS_Hall]  folding stability dG unfold      kcal/mol            1.54
 5  SAGGSAGGSAGGMITIEEDPNKDLKTVTVYVPEKPKWVTVDVKPSETIEEALAKAEELLKSAGGSAGGSAGG [r7_138_JUSTAS]  folding stability dG unfold      kcal/mol          0.0308
 6  SAGMVTITVETTDPQGNWTTKTYEFPLDPGYSLDDVIKRHSPPNAKKYEVTKTEPPPPVTEIKLTVEPSSAG [r5_227_JUSTAS]  folding stability dG unfold      kcal/mol           0.698
 7  SAGGKIWIPMDFLKEIAEEGNIKEIEVNPDDGDMYTIKFPNLADKFGEPVTISIRRPPGGNPWIEIEPSAGG [r13_163_TrROS]  folding stability dG unfold      kcal/mol           0.107
 8  SAGGSAGGSAGKVVLAKAKVTPPDGSEYEFDLAIEVPDDVVLVVGLHFDYPDQVDFVFEGSAGGSAGGSAGG [r11_781_TrMRF]  folding stability dG unfold      kcal/mol            1.28
 9  SAGGGWKPIGKEEITLPFGIKVTVDIWTWPDGMIMIMIEIEIPVPPPKPPVPPMSPEDMKDMNEDNGSAGGS [r16_6_TrROS]  folding stability dG unfold      kcal/mol            2.06
10  SHTTTEPATGVTVEVVPSPDGTHVVTVKKPGGEVVKTVTVPSGPRPPGSTTPLTVALTDLPPDVETSVDLSS [r1_263_JUSTAS]  folding stability dG unfold      kcal/mol           0.416
11  SAGGMVKLTVYETPDSYTVTIDLGDKPYTIPVPPGLSPEEAAARAVEELQKAFPDEEVVVESVEYVARSAGG [r13_884_JUSTAS]  folding stability dG unfold      kcal/mol             1.1
12  SAELKISKIDVSSLPDGSKKVTVNFSAPNFKVTITLDKSGNVSVEVSPEARKLPPEFFNLILNLAKELGSAG [r14_555_TrMRF]  folding stability dG unfold      kcal/mol            3.64
13  SAGGMLPGLRPLLLAVLVPAEEPLEPEQVRELAEELRRELEEKGYGFAFRAIELEDFQLIIVDVVDPFSAGG [r13_442_TrMRF]  folding stability dG unfold      kcal/mol            2.54

Where do the numbers come from? From the supplement of paper PMC12764529.
